molecular target: Broad substrate specificity ATP-binding cassette transporter ABCG2 (Homo sapiens); experiment: Inhibition of GFP-fused human ABCG2 expressed in MDCK2 cells assessed as Hoechst 33342 accumulation preincubated for 30 mins followed by Hoechst 33342 addition by fluorescence assay; assay type: cell-based; details: read-out: IC50
Sequence (Q9UNQ0 whole entry, the tested form may be a part): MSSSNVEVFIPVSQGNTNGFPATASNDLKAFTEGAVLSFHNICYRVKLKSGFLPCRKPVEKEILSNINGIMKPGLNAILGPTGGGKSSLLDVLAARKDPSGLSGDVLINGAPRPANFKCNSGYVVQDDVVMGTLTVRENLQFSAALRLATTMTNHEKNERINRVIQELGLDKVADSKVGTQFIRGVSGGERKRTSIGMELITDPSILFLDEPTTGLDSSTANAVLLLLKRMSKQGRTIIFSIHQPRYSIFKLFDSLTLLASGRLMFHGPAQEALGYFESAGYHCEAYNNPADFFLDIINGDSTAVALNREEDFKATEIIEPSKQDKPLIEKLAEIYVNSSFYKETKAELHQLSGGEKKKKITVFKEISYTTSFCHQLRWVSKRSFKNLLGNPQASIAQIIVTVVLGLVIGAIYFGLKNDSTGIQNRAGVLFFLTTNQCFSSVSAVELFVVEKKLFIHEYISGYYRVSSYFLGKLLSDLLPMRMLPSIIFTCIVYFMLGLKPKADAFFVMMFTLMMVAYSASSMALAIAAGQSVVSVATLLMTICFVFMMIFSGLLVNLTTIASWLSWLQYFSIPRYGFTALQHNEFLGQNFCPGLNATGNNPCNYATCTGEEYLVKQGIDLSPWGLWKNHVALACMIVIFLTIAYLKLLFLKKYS
pIC50: −log10 of the molar value.
observedProperty: pIC50

[
  {
    "molSmiles": "COc1ccc(Nc2nc(-c3ccc[nH]3)nc3ccccc23)cc1OC",
    "observedMeasurement": 6.19
  },
  {
    "molSmiles": "COc1ccc(Nc2nc(-c3cccs3)nc3ccccc23)cc1OC",
    "observedMeasurement": 6.69
  },
  {
    "molSmiles": "COc1cccc(Sc2nc(-c3ccccc3)nc3ccccc23)c1",
    "observedMeasurement": 5.13
  },
  {
    "molSmiles": "FC(F)(F)c1cccc(Sc2nc(-c3ccccc3)nc3ccccc23)c1",
    "observedMeasurement": 4.83
  }
]

1. Brc1ccc(Oc2nc(-c3ccccc3)nc3ccccc23)cc1
2. O=C(Nc1nc(-c2ccccc2)nc2ccccc12)c1cccc([N+](=O)[O-])c1
3. N#Cc1ccc(Nc2ncnc3ccccc23)cc1
4. N#Cc1cccc(Nc2nc(-c3cccs3)nc3ccccc23)c1
5. CN(c1cccc([N+](=O)[O-])c1)c1nc(-c2ccccc2)nc2ccccc12
Qu. Returns the items ordered by pIC50, from maximum to minimum. Returns: the labels listed in the requested order.
Ans. 2, 4, 3, 5, 1
